pKi overview
# target_of_assay: human GlyT1c transporter (Homo sapiens, UniProt P48067)
# Construct: expressed in transfected cells; host or cells: CHO cells (recombinant; line hGlyT1c_5_CHO is named for the uptake assay)
# Sequence (P48067 1-706): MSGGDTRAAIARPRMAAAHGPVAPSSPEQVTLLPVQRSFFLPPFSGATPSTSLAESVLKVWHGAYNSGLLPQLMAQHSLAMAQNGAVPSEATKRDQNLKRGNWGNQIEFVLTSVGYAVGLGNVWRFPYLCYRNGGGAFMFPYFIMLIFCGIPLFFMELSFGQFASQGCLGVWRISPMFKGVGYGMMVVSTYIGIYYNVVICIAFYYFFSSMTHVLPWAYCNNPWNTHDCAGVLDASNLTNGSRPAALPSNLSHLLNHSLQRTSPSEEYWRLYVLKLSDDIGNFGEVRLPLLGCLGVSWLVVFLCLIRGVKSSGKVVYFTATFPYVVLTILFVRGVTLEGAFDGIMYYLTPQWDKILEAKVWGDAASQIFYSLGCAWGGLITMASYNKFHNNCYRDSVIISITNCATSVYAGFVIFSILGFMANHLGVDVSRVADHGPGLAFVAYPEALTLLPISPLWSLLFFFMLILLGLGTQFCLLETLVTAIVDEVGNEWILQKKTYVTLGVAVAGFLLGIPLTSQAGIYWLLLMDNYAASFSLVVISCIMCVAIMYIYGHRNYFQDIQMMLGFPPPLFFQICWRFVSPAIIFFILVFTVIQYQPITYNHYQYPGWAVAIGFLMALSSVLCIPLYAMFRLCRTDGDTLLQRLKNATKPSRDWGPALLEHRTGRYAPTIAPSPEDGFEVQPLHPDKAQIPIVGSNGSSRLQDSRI
# experimental_protocol: Radioligand binding assay using recombinant CHO cell membranes expressing human GlyT1
# experimental_context: radioligand binding to human GlyT1c transporter-expressing membranes
pKi: −log10 of the molar value.

>>> value("Cn1cnc(S(=O)(=O)N2C[C@H](NCCOc3ccc(C(C)(C)C)cc3)[C@@H](c3ccccc3)C2)c1")
"≥ 6.00"
>>> value("O=S(=O)(c1ccc(C(F)(F)F)nc1)N1CC(Nc2ccc(F)c(F)c2)C(c2ccccc2)C1 (centres unmarked)")
"≥ 5.00"
>>> value("CCc1ccc(S(=O)(=O)N2CC(Nc3ccc(F)c(F)c3)C(c3ccccc3)C2)s1 (centres unmarked)")
"≤ 5.00"
>>> value("Cn1ccc(S(=O)(=O)N2C[C@@H](NC(=O)c3cccc(C(F)(F)F)c3Cl)[C@H](c3ccccc3)C2)n1 (relative stereo)")
"≥ 5.00"
>>> value("Cn1cnc(S(=O)(=O)N2C[C@@H](NCc3cccc(C(F)(F)F)c3Cl)[C@H](c3ccc(F)cc3)C2)c1 (relative stereo)")
"≥ 7.00"
>>> value("Cn1cnc(S(=O)(=O)N2C[C@@H](Nc3cccnc3)[C@H](c3ccccc3)C2)c1 (relative stereo)")
"≥ 5.00"
>>> value("Cn1cnc(S(=O)(=O)N2C[C@@H](Nc3cccnc3)[C@H](c3ccc(F)cc3)C2)c1 (relative stereo)")
"≥ 5.00"
>>> value("Cc1ccc(CCN[C@H]2CN(S(=O)(=O)c3cn(C)cn3)C[C@@H]2c2ccccc2)cc1")
"≥ 6.00"
>>> value("Cn1cnc(S(=O)(=O)N2C[C@H](NC(=O)Nc3ccc(F)cc3)[C@@H](c3ccc(F)cc3)C2)c1")
"≥ 6.00"
>>> value("Cc1ccc(C#N)cc1N[C@@H]1CN(S(=O)(=O)c2cn(C)cn2)C[C@H]1c1ccccc1 (relative stereo)")
"≥ 5.00"

Tested on human GlyT1c transporter (Homo sapiens, UniProt P48067), the item Cn1cnc(S(=O)(=O)N2C[C@@H](Nc3ccccc3Cl)[C@H](c3ccc(F)cc3)C2)c1 (relative stereo) showed pKi equal to ≥ 6.00

Tested on human GlyT1c transporter (Homo sapiens, UniProt P48067), the item "Cn1cnc(S(=O)(=O)N2C[C@H](Nc3ccc(F)c(OC(F)(F)F)c3)[C@@H](c3ccccc3)C2)c1" showed pKi equal to ≥ 8.00

Tested on human GlyT1c transporter (Homo sapiens, UniProt P48067), the item "Cc1nc(-c2ccccc2)sc1CN[C@H]1CN(S(=O)(=O)c2cn(C)cn2)C[C@@H]1c1ccccc1" showed pKi equal to ≥ 7.00

Tested on human GlyT1c transporter (Homo sapiens, UniProt P48067), the item Cn1cnc(S(=O)(=O)N2C[C@@H](Nc3ccc(Cl)c(OC(F)(F)F)c3)[C@H](c3ccccc3)C2)c1 (relative stereo) showed pKi equal to ≥ 6.00
